The entries below are paired with their reported composite z-score.
# system-under-test: Neurogenic locus notch homolog protein 2 (Homo sapiens)
# assay-explanation: Notch2 binders on small-molecule microarrays, primary screen, biochemical, small-molecule microarray, 635 nm fluorescence, stem cell growth factors (AID 1073)
# assay-conditions: Notch2 binding, higher = more signal
property-measured: composite z-score

INSERT INTO measurements (compound, endpoint_value) VALUES
  ('O=C1C[C@@](C(=O)NCC(F)(F)F)(c2ccc([N+](=O)[O-])cc2)[C@@H](c2ccc(CO)cc2)N1CC12CC3CC(CC(C3)C1)C2', 1.19),
  ('CC(C)C[C@@H]1NC(=O)[C@@H]2C[C@H](C(=O)NCCCCCC[N+](C)(C)C)[C@H](c3cccc(OCCO)c3)N2C1=O', 0.114),
  ('CC(C)OC(=O)CC(=O)CC(O)c1ccc([N+](=O)[O-])cc1 (stereo not drawn)', 0.795),
  ('COCC1=C2[C@@H](CCc3ccccc3)OB(O)C[C@@H]2[C@@H]2C(=O)N(C)C(=O)[C@@H]2C1', 0.21),
  ('CO[C@H]1O[C@H](CO)[C@@H](OC(=O)c2ccc(Br)cc2)[C@@H]2OC(=O)[C@H](Cc3ccccc3)C/C=C/C[C@@H](Cc3ccccc3)C(=O)O[C@@H]12', 0.496),
  ('Cc1ccc(N2C(=O)c3ccccc3[C@](C)(C(=O)NCc3ccccc3)[C@@H]2c2ccc(CO)cc2)nc1', -0.378),
  ('COCCOC(=O)N1C(=O)[C@@]2(c3cc(C#CCC(C(=O)OC)C(=O)OC)ccc31)[C@H](C(=O)NC[C@H](O)c1ccccc1)[C@H]1C(=O)O[C@H](c3ccccc3)[C@H](c3ccccc3)N1[C@@H]2c1ccc(OCCO)cc1', 0.917),
  ('O=C1C2C=CC(C(O)C=Cc3ccc([N+](=O)[O-])cc3)N(Nc3ccccc3)C2C(=O)N1c1ccccc1 (stereo not drawn)', 1.59),
  ('COc1cc(NN2C(C(O)C3CCCCC3)C=CC3C(=O)N(C)C(=O)C32)cc(OC)c1OC (stereo not drawn)', 1.59),
  ('[N-]=[N+]=NCc1ccccc1[C@H]1OC(c2ccc(OCCCO)cc2)=N[C@@]1(CCS(=O)(=O)c1ccccc1)C(=O)NCc1ccccc1', 1.53),
  ('[N-]=[N+]=NCc1ccccc1[C@@H]1OC(c2ccc(OCCCO)cc2)=N[C@]1(Cc1ccccc1)C(=O)NCCN1CCOCC1', 1.4),
  ('COCC(=C=CC[C@@H](O)c1cccc(OCCO)c1)CCO', 0.234),
  ('Nc1cc(Br)ccc1C(=O)O', 0.314),
  ('O=C1NC(=O)C2C1C=CC(C(O)c1ccccn1)N2Nc1ccc(Cl)cc1Cl (stereo not drawn)', 1.16),
  ('CC1CC/C=C\[C@H]2OC34C=CCN(C(C)(C)C)C(=O)[C@H]3N(C(CO)C(C)C)C(=O)[C@@H]4C2C(=O)O1 (stereo partly drawn)', -0.147),
  ('COc1ccc([Si](C)(C)[C@H]2[C@H](CC(=O)N3CCC[C@H]3CO)O[C@@]3(C(=O)N(Cc4ccc(N5CCC5=O)cc4)c4ccccc43)[C@@H]2C)cc1', 0.549),
  ('C=CCC(OC(C)=O)[C@@H]1[C@@H](N(Cc2cccc3ccccc23)C(=O)Cc2ccc(F)cc2)c2cc(OCCCO)ccc2N1C(=O)c1ccc(-c2ccccc2)cc1 (stereo partly drawn)', -0.648),
  ('COCCOC(=O)N1C(=O)[C@@]2(c3cc(C#CC4(O)CCCCCC4)ccc31)[C@H](c1ccc(OCCO)cc1)N1[C@H](c3ccccc3)[C@H](c3ccccc3)OC(=O)[C@H]1[C@@H]2C(=O)Nc1nc2ccccc2s1', 1.32),
  ('COc1ccc([Si](C)(C)[C@H]2[C@H](CCO)O[C@@]3(C(=O)N(Cc4ccc(N5C(=O)c6ccccc6Oc6ccccc65)cc4)c4ccccc43)[C@@H]2C)cc1', -0.389),
  ('C=C[C@@H](C)[C@@H](OC(=O)Nc1ccc(SC)cc1)c1ccc(OCCO)cc1', -0.202),
  ('O=C(NCCN1CCOCC1)[C@@H]1c2ccccc2C(=O)N(Cc2ccccc2)[C@H]1c1ccc(CO)cc1', -0.913),
  ('COCCOC(=O)N1C(=O)[C@@]2(c3cc(C#CCC(C(=O)OC)C(=O)OC)ccc31)[C@H](c1ccc(O)cc1)N1[C@H](c3ccccc3)[C@H](c3ccccc3)OC(=O)[C@H]1[C@@H]2C(=O)NC[C@H](O)c1ccccc1', 0.147),
  ('O=C1C[C@@](C(=O)NCc2ccccc2)(c2ccc([N+](=O)[O-])cc2)[C@@H](c2ccc(CO)cc2I)N1CC12CC3CC(CC(C3)C1)C2', 1.2),
  ('CC(C)(C)OC(=O)CC[C@]1(C(=O)N2CCCCC2)COC(c2ccc(OCCCO)cc2)=N1', 1.6),
  ('C=CCC(OC(C)=O)[C@@H]1[C@@H](N(Cc2ccc(-c3ccccc3)cc2)C(=O)Cc2ccc(F)cc2)c2cc(OCCCO)ccc2N1C(=O)Cc1ccc2ccccc2c1 (stereo partly drawn)', -0.821),
  ('CC=CC(O)C1C=CC2C(=O)NC(=O)C2N1Nc1ccccn1 (stereo not drawn)', 1.03),
  ('CO[C@H]1O[C@H](CO)[C@@H](OC(=O)Nc2cccc(F)c2)[C@H](OC(=O)Nc2ccccc2-c2ccccc2)[C@H]1OC(=O)Nc1ccccc1-c1ccccc1', 1.53),
  ('COc1cc(NN2C(C(O)C3CCCCC3)C=CC3C(=O)N(c4ccccc4)C(=O)C32)cc(OC)c1OC (stereo not drawn)', 1.7);

====

# system-under-test: NADPH oxidase 5 (Homo sapiens)
# assay-explanation: NOX5-dependent H2O2 signal modulators, primary screen, NOX inhibitor project, cell-based, HEK293-NOX5, Amplex Red fluorescence (AID 1161)
# assay-conditions: HEK293-NOX5, ionomycin, 45 min, higher = more signal
property-measured: z-score

INSERT INTO results (molecule, endpoint_value) VALUES
  ('CC(C)N1CC=CC23O[C@@H]4/C=C\CCCOC(=O)C4[C@H]2C(=O)N(CCCCCCO)[C@@H]3C1=O (some centres undefined)', 1.92),
  ('CCCC=C(CCC)[C@@H](NS(=O)(=O)c1cccc2cccnc12)c1ccc(-c2ccccc2)cc1', 2.39),
  ('C=C(CCCC)C(=O)CC[C@H](OC(=O)c1ccccc1-c1ccccc1C(=O)O)c1ccccc1OCCO', -1.15),
  ('COC(=O)[C@@]1(Cc2ccc(OC)cc2)[C@H]2c3cc(C(=O)N4CCCC4)n(Cc4ccc(S(C)(=O)=O)cc4)c3C[C@H]2CN1C(=O)c1ccccc1', -1.7);

====

The entries below are paired with their reported composite z-score.
# Test system: Fibrinogen (Alexa647-labelled)
# assay-explanation: fibrinogen binders on compound microarrays, profiling panel, artefact control for SMM control-protein annotation, biochemical, small-molecule microarray, 635/667 nm fluorescence (AID 1131);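 note: z-score merges 667 nm fluorescence with per-spot signal-to-noise over triplicate slides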
# assay-conditions: fibrinogen-A647 binding fluorescence, higher = more signal
property-measured: composite z-score

INSERT INTO measurements (molecule, endpoint_value) VALUES
  ('NC(=O)[C@H]1[C@@H]2C(=O)O[C@@H](c3ccccc3)[C@@H](c3ccccc3)N2[C@@H](c2ccc(O)cc2)[C@]12C(=O)Nc1ccccc12', -1.61),
  ('C=CCC(OC(C)=O)[C@@H]1[C@@H](N(Cc2ccc(-c3cccc(C(F)(F)F)c3)o2)C(=O)Cc2ccc(OC)cc2)c2cc(OCCCO)ccc2N1C(=O)Cc1ccc2ccccc2c1 (stereo partly drawn)', 0.226),
  ('CC(C)(C)OC(=O)CC[C@]12N=C(c3ccc(OCCCO)cc3)O[C@H]1c1ccccc1N(Cc1ccccc1)C2=O', 0.758);

====

# system-under-test: Carbonic anhydrase 2 (Homo sapiens) (UniProt P00918)
# assay-explanation: CAII small-molecule binders, profiling panel, biochemical, small-molecule microarray, Alexa647-labelled CAII (AID 1122)
# assay-conditions: CAII-A647 binding fluorescence, higher = more signal
The entries below are paired with their reported composite z-score.
property-measured: composite z-score

INSERT INTO measurements (smiles_code, property_measured, endpoint_value) VALUES
  ('O=C1C[C@@](C(=O)NCC(F)(F)F)(c2ccc([N+](=O)[O-])cc2)[C@@H](c2ccc(CO)cc2)N1CC12CC3CC(CC(C3)C1)C2', 'composite z-score', 0.502),
  ('COC(=O)c1c2oc(c1C(=O)OC)C(=O)N1CCC[C@H]1Cn1nncc1CN(Cc1ccccc1)C(=O)N[C@H](CO)CC2', 'composite z-score', 0.75),
  ('COC(=O)[C@@]1(Cc2ccc(F)cc2)[C@H]2c3cc(C(=O)N4CCCC4)n(C)c3C[C@H]2CN1C(=O)c1ccccc1', 'composite z-score', 0.76),
  ('CC(C)(C)OC(=O)CC[C@]12N=C(c3ccc(OCCCO)cc3)O[C@H]1c1ccccc1N(Cc1ccccc1)C2=O', 'composite z-score', 0.557),
  ('CO[C@H]1O[C@H](CO)[C@@H](OC(=O)CCc2ccccc2)[C@H](OC(=O)c2cc3ccccc3[nH]2)[C@H]1OC(=O)c1cc2ccccc2[nH]1', 'composite z-score', 0.68),
  ('CN(C)CCCCNC(=O)[C@H]1C[C@H]2C(=O)N[C@@H](CCCC[N+](C)(C)C)C(=O)N2[C@H]1c1ccc(O)cc1', 'composite z-score', 0.716),
  ('C=C[C@@H](OC)[C@H](OC(=O)Nc1ccc(OC)cc1)c1ccc(OC)c(O)c1', 'composite z-score', 0.415),
  ('CCOC(=O)C[C@H]1[C@H](OC(=O)c2cc3ccccc3oc2=O)[C@@H](NC(=O)c2ccc3ccccc3c2)c2cc(OCCCO)ccc2N1C(=O)Cc1ccc(OC)cc1', 'composite z-score', 0.265),
  ('COCCOC(=O)N1C(=O)[C@@]2(c3cc(C#CC4(O)CCCCCC4)ccc31)[C@H](C(=O)N1CCN(c3ncccn3)CC1)[C@H]1C(=O)O[C@H](c3ccccc3)[C@H](c3ccccc3)N1[C@@H]2c1ccccc1OCCO', 'composite z-score', 0.384),
  ('CO[C@H]1O[C@H](CO)[C@@H](OC(=O)c2ccc(Br)cc2)[C@@H]2OC(=O)[C@H](Cc3ccccc3)C/C=C/C[C@@H](Cc3ccccc3)C(=O)O[C@@H]12', 'composite z-score', 0.704),
  ('CC(C)C(=C=CC[C@@H](O)c1cccc(OCCO)c1)C[C@@H](O)c1ccccn1', 'composite z-score', 0.26),
  ('C[C@@H]1ON(c2ccc(I)cc2)[C@H](c2ccc(OC(=O)OC(C)(C)C)cc2)[C@H]1C(=O)N1C(=O)OC[C@H]1Cc1ccccc1', 'composite z-score', 0.574),
  ('COCCOC(=O)N1C(=O)[C@@]2(c3cc(C#CCNC(N)=O)ccc31)[C@H](c1ccc(O)cc1)N1[C@H](c3ccccc3)[C@H](c3ccccc3)OC(=O)[C@H]1[C@@H]2C(N)=O', 'composite z-score', -0.394);
